experimental_system: T1, 4H687-bA
T1 chain: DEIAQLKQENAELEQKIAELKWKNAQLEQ
test_description: two-hybrid library CCNG1;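 note: natural log of median RNA to DNA barcode read ratio; higher means stronger binding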
Below, each of the binders is paired with its reported interaction score value.
Kindly provide the number alone.

Sample answers from the record:
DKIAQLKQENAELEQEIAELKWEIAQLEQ [4H2697-bA]; -1.08
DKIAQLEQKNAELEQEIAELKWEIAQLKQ [4H2442-bA]; -0.225

Challenge: What value of interaction score has been reported for the following binder? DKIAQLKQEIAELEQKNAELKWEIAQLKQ [4H2618-bA]
Response given: 0.769
